Test: T. cruzi intracellular proliferation inhibitors, primary screen, cell-based, beta-gal Tulahuen parasites, NIH3T3 host, luminescence (AID 624255)
Conditions: T. cruzi beta-gal in NIH3T3, GalScreen luminescence, 90 h; at 8.34 µM
Hit rate of the full screen: of about 77,000 compounds, about 4,600 (6%) were called active. Another 1% or so got no clear call; they are omitted.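 Rule for the calls: active = mean inhibition above about 93%, with at least 55% of replicates each passing it (limit read from the data, passing the limit was not always enough); inconclusive = only one of those two conditions holds; inactive = neither condition holds.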 The sample holds actives, similar compounds and a random draw of the others, so the mix is not that of the screen.
Select the matching outcome among y (active), n (inactive)

Assay outcome for `CCS(=O)(=O)Nc1ccc2c(c1)C(=O)N(C)[C@@H]1CC[C@@H](CC(=O)N3CCCCC3)O[C@H]1CO2` : what was it?
n

Try this compound too: `CC(C)CC#Cc1ccc2c(c1)O[C@H](CN(C)Cc1cccnc1)[C@H](C)CN([C@@H](C)CO)S2(=O)=O`
y

Try this compound too: `CCCC(=O)Nc1ccc2c(c1)C(=O)N(C)C[C@@H](OC)[C@H](C)CN(C(C)=O)[C@H](C)CO2`
n

Try this compound too: `C[C@@H]1CCCCO[C@H](CN(C)C(=O)Nc2cccc3ccccc23)[C@@H](C)CN([C@@H](C)CO)C(=O)c2cc(NC(=O)Nc3ccc(F)cc3)ccc2O1`
n

Try this compound too: `O=C(C[C@H]1CC[C@H](NC(=O)c2ccc3c(c2)OCO3)[C@H](CO)O1)NCc1ccc(Oc2ccccc2)cc1`
n

Try this compound too: `CC(C)NC(=O)Nc1ccc2c(c1)C(=O)N(C)[C@H]1CC[C@H](CC(=O)NCC3CCCCC3)O[C@@H]1CO2`
n

Try this compound too: `CC(C)CC#Cc1ccc2c(c1)O[C@H](CN(C)C(=O)c1cccnc1)[C@@H](C)CN([C@H](C)CO)S2(=O)=O`
n

Try this compound too: `COc1ccc(CNC(=O)C[C@H]2C[C@H]3c4cc(NS(C)(=O)=O)ccc4O[C@H]3[C@@H](CO)O2)cc1`
n
